Reported pIC50 against Insulin-like growth factor 1 receptor (Homo sapiens, UniProt P08069), gathered from multiple publications, appears below.
pIC50: −log10 of the molar value.

COMPOUND	QUALIFIER OPERATOR	pIC50
COc1ccc(OC)c(C2CC(N3CCCC3=O)c3cccc4c3N2CC4)c1 (centres unmarked)	=	5.68
CN(C)C/C=C/C(=O)Nc1ccc(F)c(Nc2ncc(Br)c(Nc3ccc4ccccc4c3)n2)c1	=	6.83
CN1CCN(CCCN2C(=O)c3cc4nc(-c5c(NC[C@@H](O)c6cccc(Cl)c6)cc[nH]c5=O)[nH]c4cc3C2=O)CC1	>	6.30
C=CC(=O)N[C@@H]1CN(c2nc(Nc3cn(C)nc3OC)c3ncn(C45CC(C4)C5)c3n2)C[C@H]1F (racemic)	≤	7.00
CCc1cc(Nc2ncc(Cl)c(Nc3ccc(-c4cnn5cnccc45)cc3P(C)(C)=O)n2)c(OC)cc1N1CCC(N2CCN(C)CC2)CC1	=	6.58
CCc1cc(Nc2ncc(Cl)c(Nc3ccc(-c4cnccn4)cc3P(C)(C)=O)n2)c(OC)cc1N1CCC(N2CCN(C)CC2)CC1	=	6.73
CCc1cc(Nc2ncc(Br)c(Nc3ccc(-c4cnc5c(ccn5C)c4)cc3P(C)(C)=O)n2)c(OC)cc1N1CCC(N2CCN(C)CC2)CC1	=	6.30
CCc1cc(Nc2ncc(Cl)c(Nc3ccc(-c4cnc(OC)nc4)cc3P(C)(C)=O)n2)c(OC)cc1N1CCC(N2CCN(C)CC2)CC1	=	6.77

====

pIC50: −log10 of the molar value.
Literature-derived pIC50 for Insulin-like growth factor 1 receptor (Homo sapiens) follows.
READOUT TYPE: pIC50

SMILES STRUCTURE	QUALIFIER OPERATOR	ASSAY VALUE
CCc1cc(Nc2ncc(Br)c(Nc3ccc4nc(C5CC5)ccc4c3P(C)(C)=O)n2)c(OC)cc1N1CCN(C)CC1	=	6.84
CCc1cc(Nc2ncc(Br)c(Nc3ccc(-c4cnn(C(F)F)n4)cc3P(C)(C)=O)n2)c(OC)cc1N1CCC(N2CCN(C)CC2)CC1	=	7.25
CCc1cc(Nc2ncc(Br)c(Nc3ccc(-c4cncnc4)cc3P(C)(C)=O)n2)c(OC)cc1N1CCC(N2CCN(C)CC2)CC1	=	6.92
COc1cccc(-c2cnc3[nH]ccc3c2)c1	≥	5.00
C=CC(=O)Nc1cc(Nc2ncc(C#N)c(-c3cn(C45CC(C4)C5)c4ccccc34)n2)c(OC)cc1N(C)CCN(C)C	≤	7.00
COc1cc(Nc2ncc(Br)c(Nc3ccc4nc(-c5cnn(C)c5)ccc4c3P(C)(C)=O)n2)c(C)cc1N1CCOCC1	=	7.39
COCCN1C(=O)c2cc3nc(-c4c(NC[C@@H](O)c5cccc(Cl)c5)cc[nH]c4=O)[nH]c3cc2C1=O	<	4.82

====

Several publications report IC50 on Insulin-like growth factor 1 receptor (Homo sapiens, UniProt P08069); those values are gathered here.

MOLECULE	UNIT NAME	QUALIFIER OPERATOR	IC50
O=C1CCCN1C1CC(c2cc(C(F)(F)F)cc(C(F)(F)F)c2)N2CCc3cccc1c32 (stereo not drawn)	nM	=	5690
NCC1CC(n2cc(-c3cccc(N)c3)c3c(N)ncnc32)C1 (stereo not drawn)	nM	=	7600
CCc1cc(Nc2ncc(Br)c(Nc3ccc(-c4cnn(C)n4)c(F)c3P(C)(C)=O)n2)c(OC)cc1N1CCC(N2CCN(C)CC2)CC1	nM	=	54.9
Cc1ccc(NC(=O)/C=C/CN(C)C)cc1Nc1ncc(Cl)c(Nc2ccc3ccccc3c2)n1	nM	=	117
COc1ccc(NC(=O)/C=C/CN(C)C)cc1Nc1ncc(Cl)c(Nc2cnc3ccccc3c2)n1	nM	=	12.5
NCC1CC(n2cc(-c3cccc(F)c3)c3c(N)ncnc32)C1 (stereo not drawn)	nM	=	7500
CCc1cc(Nc2ncc(Br)c(Nc3ccc4nc(C5CC5)ccc4c3P(C)(C)=O)n2)c(OC)cc1N1CCC(N2CCN(C)CC2)CC1	nM	=	178
C=CC(=O)Nc1cc(Nc2nccc(-c3cn(C45CC(C4)C5)c4ccccc34)n2)c(OC)cc1N(C)CCN(C)C	nM	≥	100
Cc1ccc(OC[C@H](O)CNc2ccnc(O)c2-c2nc3cc4c(cc3[nH]2)C(=O)N([C@H]2CCCN(C)C2)C4=O)c(C)c1	nM	<	500
C=CC(=O)Nc1ccc(OC)c(Nc2ncc(Cl)c(Nc3ccc4ccccc4c3)n2)c1	nM	=	263
CCc1ccc2c(P(C)(C)=O)c(Nc3nc(Nc4cc(C)c(N5CCC(N6CCN(C)CC6)CC5)cc4OC)ncc3Br)ccc2n1	nM	=	116
COc1ccc(NC(=O)/C=C/CN2CCN(C(C)=O)CC2)cc1Nc1ncc(Cl)c(Nc2ccc3ccccc3c2)n1	nM	=	99.4
Cc1ccc(F)c(OC[C@H](O)CNc2cc[nH]c(=O)c2-c2nc3cc4c(cc3[nH]2)C(=O)N(C2CCN(C)CC2)C4)c1Cl	nM	<	500
CN1CCC(N2C(=O)c3cc4nc(-c5c(NC[C@@H](O)COc6c(F)ccc(Cl)c6F)cc[nH]c5=O)[nH]c4cc3C2=O)CC1	nM	<	500
CCc1cc(C)ccc1OC[C@H](O)CNc1cc[nH]c(=O)c1-c1nc2cc3c(cc2[nH]1)CN(C1CCN(C)CC1)C3=O	nM	<	500
CCc1cc(Nc2ncc(Br)c(Nc3ccc4nc(C5CC5)ccc4c3P(C)(C)=O)n2)c(C)cc1N1CCC(N2CCN(C)CC2)CC1	nM	=	61.6
COc1cc(Nc2ncc(Br)c(Nc3ccc(-c4cnn(C)c4)cc3P(C)(C)=O)n2)c(C)cc1N1CCOCC1	nM	=	21.5
CS(=O)(=O)Nc1cccc(-c2cnc3[nH]cc(C(=O)c4cc(O)ccc4F)c3c2)c1	nM	≤	10000
COc1ccc(NC(=O)/C=C/CN2CCOCC2)cc1Nc1ncc(Cl)c(Nc2ccc3ccccc3c2)n1	nM	=	132
C#Cc1cncc(-c2ccc(Nc3nc(Nc4cc(CC)c(N5CCC(N6CCN(C)CC6)CC5)cc4OC)ncc3Br)c(P(C)(C)=O)c2)n1	nM	=	166
CCOc1cc(-c2ccccc2)nc2c(F)c(-c3nn([C@H]4C[C@@](C)(O)C4)c(N)c3C(N)=O)ccc12	nM	≤	100
CCc1cc(N2CCC(N3CCN(C)CC3)CC2)c(OC)cc1Nc1ncc(Br)c(Nc2ccc3nc(C4CC4)ccc3c2P(C)(C)=O)n1	nM	=	103
C=CC(=O)Nc1cc(Nc2nccc(-c3cn(C45CC(C#N)(C4)C5)c4ccccc34)n2)c(OC)cc1N(C)CCN(C)C	nM	≥	100
Cc1ccc(OC[C@H](O)CNc2cc[nH]c(=O)c2-c2nc3cc4c(cc3[nH]2)C(=O)N(CC2CCN(CCO)CC2)C4=O)c(C)c1	nM	<	500
NC(=O)c1c(-c2ccc3ccc(-c4ccccc4)nc3c2)nn([C@H]2C[C@@H](CN3CCOCC3)C2)c1N	nM	≤	100
